Cited source: patent US12583861B2

- Assayed system: human TLR7 (Homo sapiens, UniProt Q9NYK1)
- Construct: host or cells: HEK293 (HEK-Blue hTLR7)
- Sequence (Q9NYK1 27-1049): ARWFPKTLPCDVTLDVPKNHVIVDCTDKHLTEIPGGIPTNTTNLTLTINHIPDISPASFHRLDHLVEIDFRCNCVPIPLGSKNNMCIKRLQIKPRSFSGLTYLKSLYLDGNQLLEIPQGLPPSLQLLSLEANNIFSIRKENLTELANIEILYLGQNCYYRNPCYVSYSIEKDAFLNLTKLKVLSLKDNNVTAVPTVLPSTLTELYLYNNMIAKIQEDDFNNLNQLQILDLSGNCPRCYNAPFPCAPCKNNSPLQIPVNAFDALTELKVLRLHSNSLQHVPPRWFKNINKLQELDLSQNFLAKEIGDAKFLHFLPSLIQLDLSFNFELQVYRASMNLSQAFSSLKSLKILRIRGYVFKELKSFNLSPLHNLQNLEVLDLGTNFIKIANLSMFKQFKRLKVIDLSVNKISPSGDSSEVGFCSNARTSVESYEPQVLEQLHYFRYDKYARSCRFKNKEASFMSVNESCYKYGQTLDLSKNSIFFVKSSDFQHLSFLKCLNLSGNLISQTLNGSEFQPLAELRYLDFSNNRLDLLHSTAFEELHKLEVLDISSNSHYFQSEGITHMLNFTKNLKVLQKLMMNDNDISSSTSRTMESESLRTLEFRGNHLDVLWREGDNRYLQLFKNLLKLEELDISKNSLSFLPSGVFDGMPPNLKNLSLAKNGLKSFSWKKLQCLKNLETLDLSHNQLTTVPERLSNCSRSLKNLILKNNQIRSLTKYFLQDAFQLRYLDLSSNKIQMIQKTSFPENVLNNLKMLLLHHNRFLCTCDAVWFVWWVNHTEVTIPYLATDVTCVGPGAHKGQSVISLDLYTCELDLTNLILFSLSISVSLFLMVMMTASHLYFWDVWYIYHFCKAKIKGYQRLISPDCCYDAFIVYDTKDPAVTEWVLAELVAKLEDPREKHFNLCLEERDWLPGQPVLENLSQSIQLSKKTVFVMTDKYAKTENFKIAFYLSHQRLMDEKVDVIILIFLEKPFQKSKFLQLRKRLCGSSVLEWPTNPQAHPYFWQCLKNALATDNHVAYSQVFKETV
- Procedure summary: HEK-Blue hTLR7 reporter cell assay (SEAP, NF-kB/AP-1) for stimulation of human TLR7
- Type: cell-based
- Condition: HEK-Blue hTLR7 cells, 24 h incubation, SEAP readout; read-out: TLR7_EC50
pEC50: −log10 of the molar value. Where a name gives a salt, the structure may show the parent alone.
Give Condition met when the value for pEC50 is at least 6. Give Condition not met when it is less.

Ask | pEC50 >= 6 for CCCCc1nc2c(N)nnc(OC(C)C)c2n1CCCCN [Compound 149, dihydrochloride salt] ?
Reply | Condition not met

Ask | pEC50 >= 6 for CCCCc1nc2c(N)nnc(OC(C)C)c2n1Cc1cccc(CNC2CCC2)c1 [Compound 126, dihydrochloride salt] ?
Reply | Condition met

Ask | pEC50 >= 6 for CCCCc1nc2c(N)nnc(OC(C)C)c2n1Cc1cccc(CN2CCNCC2)c1 [Compound 131] ?
Reply | Condition met

Ask | pEC50 >= 6 for CCCCc1nc2c(N)nnc(-c3ccc[nH]3)c2n1Cc1ccc(OC)cc1 [Compound 64, hydrochloride] ?
Reply | Condition not met

Ask | pEC50 >= 6 for CCCCc1nc2c(N)nnc(OC(C)C)c2n1C[C@H]1CC[C@H](N)CC1 [Compound 25] ?
Reply | Condition met

Ask | pEC50 >= 6 for CCCCc1nc2c(N)nnc(SC(C)C)c2[nH]1 [Compound 99] ?
Reply | Condition not met

Ask | pEC50 >= 6 for CCCCCCC(=O)NCc1ccc(Cn2c(CCCC)nc3c(N)nnc(OC(C)C)c32)cc1 [Compound 84] ?
Reply | Condition met

Ask | pEC50 >= 6 for CCCCc1nc2c(N)nnc(OC(C)C)c2n1Cc1ccc(CN)cc1 [Compound 21] ?
Reply | Condition met

Ask | pEC50 >= 6 for CCCCc1nc2c(N)nnc(NCc3ccc(CN)cc3)c2n1C [Compound 87] ?
Reply | Condition not met

Ask | pEC50 >= 6 for CCCCc1nc2c(N)nnc(OC(C)C)c2n1CCCCNC1CCOCC1 [Compound 150, hydrochloride salt] ?
Reply | Condition not met

Ask | pEC50 >= 6 for CCCCc1nc2c(N)nnc(OC(C)C)c2n1Cc1ccc(CNC2CCOCC2)cc1 [Compound 82, hydrochloride] ?
Reply | Condition met

Ask | pEC50 >= 6 for CCCCc1nc2c(N)nnc(OC(C)C)c2n1CC(C)(C)O [Compound 24] ?
Reply | Condition met
